System: RARg homodimer (NR concentration 270 nM)
Assay: PBM binding z-score (relative to random genomic background probes); higher = stronger binding; sequences stand for … in GC…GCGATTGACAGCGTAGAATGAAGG
measurement-label: PBM binding z-score
Lab note: jot the number down without any unit.

Query block: // PBM binding z-score lookup, key: ACTTACGGGTCAACGAGGTTATAGTACGCGTATA
Result block: 5.01

Query block: Cool, now TCATATAGGTACTACAGGTGAAAGTCGGCATCTA
Result block: 0.428

Query block: Cool, now ATCGAAAGCTCGAAGGTGAGTATACCCACCCGAA
Result block: 0.202

Query block: Cool, now CCAGACAGGTGAGAAGGTAGCTCAGCCTCGATTA
Result block: -0.00904

Query block: Cool, now GTAACGAGGGCATTCGAGTTGATAGCATGGCGAT
Result block: 1.45

Query block: Cool, now CGAACTTGGTCAAGGACAGTGAATCTCCGCACGC
Result block: 1.1

Query block: Cool, now TCCAGTAGGTTAGTCGGGGCATTCAGCCAACATA
Result block: 0.158

Query block: Cool, now GCTCGGAGGACAAGGTCTGAGCTTTGTCCGTAGA
Result block: 0.27

Query block: Cool, now TCGAGTAGGTTAGTCGGGGCATTCACCCAACATA
Result block: -0.000869

Query block: Cool, now CAAACTAGGTCAAGGTCGAAGTCGGTTTGTGCCA
Result block: 5.12

Query block: Cool, now CGTCCCAGGTCAATGCTAGGTCAGTGAAAGCATT
Result block: 5.01

Query block: Cool, now CGTCAAAGTTCAGCTAAGGTAACGTAAAGCACGC
Result block: 5.29

Query block: Cool, now CATACAGGGTCAGCTAGCCCAGAGTAGGGACGGC
Result block: 4.82

Query block: Cool, now CGAACTAGGTCAGAACAGGACAGTCAAGGATGAT
Result block: 3.09

Query block: Cool, now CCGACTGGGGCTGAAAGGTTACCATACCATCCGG
Result block: 0.724

Query block: Cool, now ATCTCTAGGCAAAGTTCAGTGAAAGATCGATAGA
Result block: 2.42

Query block: Cool, now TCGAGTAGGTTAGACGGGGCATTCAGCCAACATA
Result block: 0.0787

Query block: Cool, now GCGACTGGGGGAAAGCAGGTTACCATAAGGTTGG
Result block: 0.39

Query block: Cool, now CGTCCATGGTCAAGGTCAGTGAAAGAGACTCGAA
Result block: 3.78

Query block: Cool, now TAGCCTAGGTCATTGGGCCAGTATTGTACGCATC
Result block: 4.05

Query block: Cool, now ACTAACGGGTCAACGAGGTTATAGCACGCGTATA
Result block: 4.5

Query block: Cool, now CCGACTGGGGCATAAGTTTACCATAAGCCAGCCC
Result block: 0.233

Query block: Cool, now CCTACTAGGTCATGGTCAGCTAATCTACAGTATG
Result block: 4.21

Query block: Cool, now TCGAGTAGGTTAGGGTCATTCAGAATGGCGTCGA
Result block: 2.8

Query block: Cool, now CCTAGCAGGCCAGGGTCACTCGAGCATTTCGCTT
Result block: 2.18

Query block: Cool, now CCGAGTAGGTTATGTGGCATTCAGGCAACGGTGA
Result block: 0.223

Query block: Cool, now ACTAGCTGGCCAAGGGTCACTCAAGATTAGTCCG
Result block: 3.54

Query block: Cool, now CCTTACGGGTCACTCCAGATTATAGCATCGGAGT
Result block: 3.98

Query block: Cool, now ACAAACAGGTGATGAAGGTAACTCAGGCTATCAT
Result block: 0.626

Query block: Cool, now CCTAGCAGGCCAGGATCACTCAAGCATTTCGCTT
Result block: -0.385

Query block: Cool, now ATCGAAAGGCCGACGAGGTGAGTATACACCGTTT
Result block: 1.08

Query block: Cool, now AATACACGGTCATCGTAGGCCAGAGTACGCACAG
Result block: 2.76

Query block: Cool, now GGTTACGGGTCAAAGGTTATAGCATGAATAGAAT
Result block: 4.71

Query block: Cool, now TAGCCTAGGTCAGGGGCCAGTATACCACGCGAAC
Result block: 3.82

Query block: Cool, now ATCTCTAGGTAACAAGTTCAGTGCAAGAGAGGAC
Result block: 1.46

Query block: Cool, now CCTACTGGGCCAAGGTCATTGATCAGTCAAAGCA
Result block: 2.83

Query block: Cool, now TCTCGGAGGACACGAAAGGTCGGAGCTCGACATC
Result block: 2.91

Query block: Cool, now CATACAGGGTCAGCTAGGCTAGAGTAGGGACGGC
Result block: 4.3

Query block: Cool, now CGAACTAGGTCATTGACAGGACACTGAATAGTAA
Result block: 3.84

Query block: Cool, now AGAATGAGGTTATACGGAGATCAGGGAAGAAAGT
Result block: 1.1

Query block: Cool, now CAAACTAGGTCCAGAGGTCAAAGTCCGCTTCCCG
Result block: 4.62

Query block: Cool, now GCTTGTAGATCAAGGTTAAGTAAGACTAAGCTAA
Result block: 0.177

Query block: Cool, now TTACCAAGGTGAGCTGAGGTTGTTGATCCAACTC
Result block: 0.109

Query block: Cool, now ATACCAAGGTGATCGTGAGGTCGTTGAAACTAAC
Result block: 1.34

Query block: Cool, now TCTCGGAGTACACGAAAGGTCAGAGCTCGACATC
Result block: 3.72

Query block: Cool, now TCTTGTAGATCAAGCACGTTAAGAAAGCCTGAGT
Result block: -0.183

Query block: Cool, now CCTGCTAGGTCATGGTCAGCTACTCTACAGTATG
Result block: 4.84

Query block: Cool, now CGTCAAAGTTCGAGGTAACGTAACAGAAAGCAGC
Result block: 2.31

Query block: Cool, now TCTGCTAGGTCAACGATGGTCAGCTAGTCTGCTA
Result block: 4.61

Query block: Cool, now AGAATGAGGTTAAAATCAGGGAAACAGAATACAT
Result block: 1.31

Query block: Cool, now GATACAGGGTCAGTTAGAGGCCAGAGTATGGAAA
Result block: 4.52

* * *

Tested on: PPARg DBDmut:RXRa IVT, anti-PPARg (DBD mutation: PPARg1 K132A/R137A, NR concentration 270 nM, RXRa partner concentration 90 nM)
Test: PBM binding z-score (relative to random genomic background probes); higher = stronger binding; sequences stand for … in GC…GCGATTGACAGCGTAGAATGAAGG
Please map values of PBM binding z-score to classes as shown: group A (below -0.2), group B (-0.2 to below 0.5), group C (0.5 or more)

Query block: Please let me know in which category the item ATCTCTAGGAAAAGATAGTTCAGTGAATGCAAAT belongs.
Result block: group C

Query block: Cool, now CAAACTAGGTCAAAGGACAAAGTCGAGCCAACCA
Result block: group C

Query block: Cool, now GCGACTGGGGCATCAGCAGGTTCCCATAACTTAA
Result block: group A

Query block: Cool, now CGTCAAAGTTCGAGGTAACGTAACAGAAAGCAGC
Result block: group A

Query block: Cool, now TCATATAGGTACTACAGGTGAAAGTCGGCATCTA
Result block: group C

Query block: Cool, now CCAGACAGGTGCGAAGGTAACTCAGCCTCGATTA
Result block: group A

Query block: Cool, now GGAACGAGGGCACGTTGATAGCAGAGTTTGATGG
Result block: group B

Query block: Cool, now CCTGCTAGGTCATTGGTCAGCTAAAGCAGCTCGC
Result block: group B

Query block: Cool, now TAGCTTAGGTCATGGGCCAGTATACCACGCGAAC
Result block: group C

Query block: Cool, now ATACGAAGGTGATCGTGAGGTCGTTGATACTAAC
Result block: group B

Query block: Cool, now ACAGAGAGGTGATGAAGGTAACTCAGGCTATCAT
Result block: group B

Query block: Cool, now ACTAGCAGGCCAATTTTGGGTCACTCAAACAAAG
Result block: group B

Query block: Cool, now GTCCCAAGGTGAATAGGTCGTTGATGAGTAGGCG
Result block: group A

Query block: Cool, now TAGCCTAGGTCAGATCGGACCAGTATACGCTATA
Result block: group B

Query block: Cool, now TCGAGTAGGTTAATCGGGGCATTCAGCCAACATA
Result block: group B

Query block: Cool, now CGTCCAAGGTGAGCAGGTCAGTGAAAGCGACGTG
Result block: group A

Query block: Cool, now GTACCAAGGTGAAGAGGTCGTTGATGAGTAGGCG
Result block: group A

Query block: Cool, now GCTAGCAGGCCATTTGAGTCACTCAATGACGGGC
Result block: group A

Query block: Cool, now CGAACTAGGTCAATGACAGTGAATCTCCGCACGC
Result block: group C

Query block: Cool, now CCAGACAGGTGGAAGGTAACTCAGTCTGGTACGC
Result block: group A

Query block: Cool, now ATCTCTAGGTAACCAAGTTCCGTGAATGCCGAAC
Result block: group C

Query block: Cool, now GCATATAGGTATTACAAGGTGAAAGTCCGATTGT
Result block: group B

Query block: Cool, now GCAGACAGGTGAAACGCACGTAACTCAGGGTGGC
Result block: group B
